- experimentalSystem: Serine/threonine-protein kinase/endoribonuclease IRE1 (Homo sapiens)
- assayProcedure: Inhibition of tunicamycin-induced IRE1alpha (unknown origin) expressed in HEK293 cells assessed as reduction in IRE1alpha-dependent splicing of XBP1u-luciferase mRNA by luciferase reporter gene assay
- Type: cell-based
Kindly state pIC50 for each of the entries shown.
Would you please state pIC50, meaning minus log10 of the concentration in mol/L, as a bare number?

Value of pIC50 reported for the compound `CN1CCC(CNc2cc(Cl)nn3c(-c4cc5nc(Nc6ccccc6)[nH]c5cc4F)cnc23)CC1` is 6.15

Input `Clc1cc(NCC2CC2)c2ncc(-c3ccc4[nH]ncc4c3)n2n1` . Output pIC50: 5.38

The reported pIC50 of the compound `O=C(CN1CCOCC1)N[C@H]1CC[C@H](Nc2cc(Cl)nn3c(-c4ccc5[nH]ncc5c4)cnc23)CC1` was 5.95

---

- experimentalSystem: Serine/threonine-protein kinase/endoribonuclease IRE1 (Homo sapiens)
- assayProcedure: Inhibition of tunicamycin-induced GFP-fused IRE1alpha (unknown origin) oligomerization expressed in HEK293 cells assessed as reduction in fluorescent foci formation after 5 hrs by fluorescence based assay
- Assay type: cell-based
propertyMeasured: pIC50
Units for pIC50: none; it is -log10 of a concentration expressed in mol/L.

Record summary for `CN1CCC(CNc2cc(Cl)nn3c(-c4cc5nc(Nc6ccccc6)[nH]c5cc4F)cnc23)CC1` : reported pIC50 = 6.13

Reported pIC50 of `O=C(CN1CCOCC1)N[C@H]1CC[C@H](Nc2cc(Cl)nn3c(-c4ccc5[nH]ncc5c4)cnc23)CC1` : 5.73

---

Consider the following compounds; for each one, report its pIC50.
- experimentalSystem: Serine/threonine-protein kinase/endoribonuclease IRE1 (Homo sapiens, UniProt O75460)
- Sequence (O75460 whole entry, the tested form may be a part): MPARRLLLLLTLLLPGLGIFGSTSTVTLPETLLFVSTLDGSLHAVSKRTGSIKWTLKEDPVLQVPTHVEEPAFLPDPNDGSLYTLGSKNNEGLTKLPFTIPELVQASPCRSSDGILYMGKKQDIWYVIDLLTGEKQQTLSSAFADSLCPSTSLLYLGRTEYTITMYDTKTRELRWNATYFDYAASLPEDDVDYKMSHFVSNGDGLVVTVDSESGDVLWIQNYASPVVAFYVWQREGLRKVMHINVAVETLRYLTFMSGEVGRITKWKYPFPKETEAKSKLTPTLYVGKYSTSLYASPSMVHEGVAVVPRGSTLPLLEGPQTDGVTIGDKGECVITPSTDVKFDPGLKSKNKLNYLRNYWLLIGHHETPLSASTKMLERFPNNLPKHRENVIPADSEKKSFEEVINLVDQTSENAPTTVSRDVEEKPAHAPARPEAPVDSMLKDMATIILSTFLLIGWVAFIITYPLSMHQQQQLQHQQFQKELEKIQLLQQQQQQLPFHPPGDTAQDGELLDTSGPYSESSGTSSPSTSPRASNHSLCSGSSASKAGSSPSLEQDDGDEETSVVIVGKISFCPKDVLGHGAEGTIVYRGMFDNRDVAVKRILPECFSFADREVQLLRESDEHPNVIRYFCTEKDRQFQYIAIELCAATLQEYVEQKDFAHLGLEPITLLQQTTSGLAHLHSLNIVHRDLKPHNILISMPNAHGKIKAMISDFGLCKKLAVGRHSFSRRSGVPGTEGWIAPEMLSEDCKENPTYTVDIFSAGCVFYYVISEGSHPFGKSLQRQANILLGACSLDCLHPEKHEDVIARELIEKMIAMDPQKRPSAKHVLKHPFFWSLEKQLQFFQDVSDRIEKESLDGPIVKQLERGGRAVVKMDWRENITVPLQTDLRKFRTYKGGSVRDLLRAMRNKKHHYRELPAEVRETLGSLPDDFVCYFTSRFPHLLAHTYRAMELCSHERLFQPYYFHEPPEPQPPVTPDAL
- assayProcedure: Inhibition of dephosphorylated IRE1alpha (G547 to L977 residues) (unknown origin) autophosphorylation at S724 after 25 mins in presence of ATP by dissociation-enhanced lanthanide fluorescence immunoassay
pIC50: −log10 of the molar value.

pIC50 reading for `CN1CCC(CNc2cc(Cl)nn3c(-c4cc5nc(Nc6ccccc6)[nH]c5cc4F)cnc23)CC1` : 6.80

Given item `Cn1ncc2cc(-c3cnc4c(NCC5CC5)cc(Cl)nn34)ccc21` , the value recorded as its pIC50 is < 5.00

Entry `CN(c1cc(Cl)nn2c(-c3ccc4[nH]ncc4c3)cnc12)[C@H]1CC[C@H](N)CC1` , pIC50 reported as < 5.00

Lab note: `CN(c1ccccc1)c1nc2cc(-c3cnc4c(NCC5CC5)cc(Cl)nn34)ccc2[nH]1` gave pIC50 of < 5.00

Reported pIC50 for `Clc1cc(NCC2CC2)c2ncc(-c3ccc4cn[nH]c4c3)n2n1` was < 5.00

Reported pIC50 of `Cn1c(Nc2ccccc2)nc2cc(-c3cnc4c(NCC5CC5)cc(Cl)nn34)ccc21` : < 5.00

Short answer for `Clc1cc(NCC2CC2)c2ncc(-c3ccc4[nH]ncc4c3)n2n1` : pIC50 was 6.52

response.value for `O=C(CN1CCOCC1)N[C@H]1CC[C@H](Nc2cc(Cl)nn3c(-c4ccc5[nH]ncc5c4)cnc23)CC1` (field: pIC50) = 6.62

---

Give measured pIC50 for each item. Keep answers brief.
- experimentalSystem: Serine/threonine-protein kinase/endoribonuclease IRE1 (Homo sapiens)
- assayProcedure: Inhibition of dephosphorylated IRE1alpha (G547 to L977 residues) (unknown origin) -dependent cleavage of FAM-labeled stem-loop RNA containing the XBP1 cleavage site preincubated for 30 mins followed by RNA XBP1 substrate addition and measured after 15 mins by FRET assay
By convention, pIC50 is the negative base-10 log of a molar concentration.

The molecule identified as `CN1CCC(CNc2cc(Cl)nn3c(-c4cc5nc(Nc6ccccc6)[nH]c5cc4F)cnc23)CC1` registered its pIC50 at 7.10

Please fill in: pIC50 reported for `Clc1cc(NCC2CC2)c2ncc(-c3ccc4[nH]ncc4c3)n2n1` = 5.05

So, `O=C(CN1CCOCC1)N[C@H]1CC[C@H](Nc2cc(Cl)nn3c(-c4ccc5[nH]ncc5c4)cnc23)CC1` ? Its pIC50 was 7.57
